Record form. Attribute: CC50 at 3 days. Fill in for each entry.
Experiment: Cytotoxicity assay (CellTiter-Blue), HEK-293 cells
Conditions: human
Quick reminder: number only, in µM, skip the unit.

QUERY: Could you share which CC50 at 3 days value was measured for Cc1ccc(NC(=O)COc2ccccc2Cc2ccccc2)c(C(=O)O)c1 ?
RESULT: 80

QUERY: Could you share which CC50 at 3 days value was measured for COc1ccc(Nc2ccc(Oc3ccccc3)cc2)c(C(=O)O)c1 ?
RESULT: 125

* * *

Record form. Attribute: CC50. Fill in for each entry.
Assay: Cytotoxicity assay, L929 cells
Details: mouse
Quick reminder: number only, in µM, skip the unit.

QUERY: Could you share which CC50 value was measured for Cc1ccc(NC(=O)COc2ccccc2Cc2ccccc2)c(C(=O)O)c1 ?
RESULT: 60

QUERY: Could you share which CC50 value was measured for O=C(O)c1ccccc1Nc1ccc(Cc2ccccc2)cc1 ?
RESULT: 60

QUERY: Could you share which CC50 value was measured for CCC(=O)Nc1ccc(-c2ccc(-c3ccccc3)cc2)cc1C(=O)O ?
RESULT: 15

QUERY: Could you share which CC50 value was measured for CCC(=O)Nc1ccc(-c2ccc(-c3ccccc3)c(F)c2)cc1C(=O)O ?
RESULT: 9

QUERY: Could you share which CC50 value was measured for COc1ccc(Nc2ccc(Oc3ccccc3)cc2)c(C(=O)O)c1 ?
RESULT: 70

QUERY: Could you share which CC50 value was measured for CCCCCc1ccc(C#Cc2ccc(NC(=O)CC)c(C(=O)O)c2)cc1 ?
RESULT: 5
